Biological target: MAGE-A11:PCF11 interaction (GST-MAGE-A11 and FAM-PCF11_4) (Homo sapiens, UniProt P43364)
Construct: GST-MAGE-A11 MHD (human MAGE-A11 MHD amino acid 218-429); made in house; host or cells: E. coli BL21(DE3)
Sequence (P43364 218-429): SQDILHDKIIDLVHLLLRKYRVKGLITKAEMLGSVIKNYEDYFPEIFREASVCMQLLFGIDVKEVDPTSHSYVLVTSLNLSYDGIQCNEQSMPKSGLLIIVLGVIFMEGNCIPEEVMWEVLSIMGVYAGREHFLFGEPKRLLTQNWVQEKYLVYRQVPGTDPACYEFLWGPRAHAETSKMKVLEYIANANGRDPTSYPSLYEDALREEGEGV
Test: TR-FRET primary / single point screen at 15 µM
Format: binding
Settings: single point TR-FRET screening of quinoline compounds against MAGE-A11:PCF11; 15 µM
MEASUREMENT TYPE: percent inhibition (TR-FRET)
Enter the number alone.

These recorded examples may help you get a feel for the data.
MOLECULE | MEASUREMENT TARGET | percent inhibition (TR-FRET)
Clc1ccc2c(NCCCN(Cc3ccccc3)Cc3cccc4ccccc34)ccnc2c1 [SJ000361181] | MAGE-A11:PCF11 interaction (GST-MAGE-A11 and FAM-PCF11_4) (Homo sapiens, UniProt P43364) | 26.2256
Cn1ccnc1CN(CCCNc1ccnc2cc(Cl)ccc12)Cc1ccccc1 [SJ000520431] | MAGE-A11:PCF11 interaction (GST-MAGE-A11 and FAM-PCF11_4) (Homo sapiens, UniProt P43364) | 15.361
O=C(O)c1ccccc1CN(CCCNc1ccnc2cc(Cl)ccc12)Cc1ccccc1 [SJ000361180] | MAGE-A11:PCF11 interaction (GST-MAGE-A11 and FAM-PCF11_4) (Homo sapiens, UniProt P43364) | 9.598

Supply reported percent inhibition (TR-FRET) belonging to this molecule: CN(C)CCCNc1c2ccccc2nc2ccccc12 [SJ000044378] 16.7674

Please indicate percent inhibition (TR-FRET) recorded for CCCCN(CCC)CCCNc1ccnc2cc(Cl)ccc12 [SJ000357571] 12.7774

Fill in percent inhibition (TR-FRET) for record O=[N+]([O-])c1cccc(CN(CCCNc2ccnc3cc(Cl)ccc23)Cc2ccccc2)c1 [SJ000361178] 17.0172
